Test system: A673/TR/shEF
Test Details: cell viability (LOESS-normalised, relative to median of negative controls) (log2 ratio); higher = more viable cells (less compound effect), active = hit call of the paper (over 3 MAD below the median)
Reported Conditions: 2.5 µM; library screen: screen2; EWS-FLI1 expression: low (doxycycline-induced shRNA knockdown); treatment time: 72 h
About 300 (9.4%) of roughly 3,200 compounds showed activity. Many of the other results were omitted from the sample, so actives are more common in it than they were.
Would you mind telling me the reported cell viability (log2) of each entry?
Lab note: write the figure by itself, no unit.

# input For the compound shown here, CN1[C@@H]2CC[C@@H]1CC(OC(c1ccccc1)c1ccccc1)C2 (some centres not stated) , give the reported cell viability (log2).
# output 0.0926

# input For the compound shown here, CN(C)c1cc2c(Nc3ccc4c(cnn4Cc4ccccc4)c3)ncnc2cn1 , give the reported cell viability (log2).
# output 0.0613

# input For the compound shown here, O=c1c(O)c(-c2cc(O)c(O)c(O)c2)oc2cc(O)cc(O)c12 , give the reported cell viability (log2).
# output 0.0599

# input For the compound shown here, COc1cccc(NC(=O)/C=C/c2ccc(Cl)cc2)c1 , give the reported cell viability (log2).
# output 0.108

# input For the compound shown here, O=C1c2c(O)ccc(O)c2C(=O)c2c(NCCNCCO)ccc(NCCNCCO)c21 , give the reported cell viability (log2).
# output -0.985

# input For the compound shown here, N.N.N.N.N.O.[Ru+2] , give the reported cell viability (log2).
# output 0.0639

# input For the compound shown here, O=C(O)/C=C1/CCCc2ccccc2C1O (configuration not stated) , give the reported cell viability (log2).
# output 0.0654

# input For the compound shown here, NC[C@@H]1O[C@H](O[C@@H]2[C@@H](CO)OC(O[C@H]3C(O[C@H]4O[C@H](CO)[C@@H](O)[C@H](O)[C@H]4N)[C@@H](N)C[C@@H](N)[C@@H]3O)[C@@H]2O)[C@H](N)[C@@H](O)[C@@H]1O (some centres not stated) , give the reported cell viability (log2).
# output 0.0499

# input For the compound shown here, COc1cc([C@@H]2c3cc4c(cc3[C@@H](O[C@@H]3O[C@@H]5CO[C@@H](C)O[C@H]5[C@H](O)[C@H]3O)[C@H]3COC(=O)[C@H]23)OCO4)cc(OC)c1O , give the reported cell viability (log2).
# output 0.00714

# input For the compound shown here, C[C@H]1c2cccc(O)c2C(O)=C2C(=O)[C@]3(O)C(O)=C(C(N)=O)C(=O)[C@@H](N(C)C)[C@@H]3[C@@H](O)[C@@H]21 , give the reported cell viability (log2).
# output 0.0538

# input For the compound shown here, O=C(O)c1cc2cc(F)ccc2[nH]1 , give the reported cell viability (log2).
# output 0.0908

# input For the compound shown here, CCCCCCCCCCCCC(=O)N1CCCCC1CNC(=O)C(N)CCCCN (configuration not stated) , give the reported cell viability (log2).
# output 0.072

# input For the compound shown here, CCN1CCC[C@H]1CNC(=O)c1c(OC)ccc(I)c1O , give the reported cell viability (log2).
# output 0.15

# input For the compound shown here, OC[C@H]1N[C@H](CO)[C@@H](O)[C@@H]1O , give the reported cell viability (log2).
# output 0.0354

# input For the compound shown here, CC[C@H](C)C(=O)O[C@H]1CCC=C2C=C[C@H](C)[C@H](CC[C@@H]3C[C@@H](O)CC(=O)O3)[C@H]21 , give the reported cell viability (log2).
# output 0.0674

# input For the compound shown here, Clc1ccc(C(c2ccc(Cl)cc2)n2cc[n+](CC(OCc3ccc(Cl)cc3Cl)c3ccc(Cl)cc3Cl)c2)cc1 (configuration not stated) , give the reported cell viability (log2).
# output 0.0822

# input For the compound shown here, COC1=C(OC)C(=O)c2ccccc2C1=O , give the reported cell viability (log2).
# output 0.0758
